Reference source: patent US7786141B2

Here the recorded Emax is given for each entry.
Target: M4 muscarinic receptor (Homo sapiens)
Construct: expressed in transfected cells; host or cells: CHO (M4-CHO)
Assay: Functional mobilization of intracellular calcium (FLIPR) in M4-CHO cells
Type: cell-based
Details: Table 4; 100% efficacy is the maximum response obtained with the Carbachol control

Consider the reported Emax for these compounds:
CCOC(=O)N1CC[C@@H](CN2CCC3(CC2)CN(C(C)=O)c2ccccc23)C1 [compound 843] : 25 to 100%
O=C(N[C@H]1CC2(CCN(C3C[C@H]4CC[C@@H]3C4)CC2)c2ccccc21)N1CCCCC1 (stereo partly shown) [compound 525] : 25 to 100%
CCOC(=O)N1CCC(N2CCC3(CC2)CN(C(=O)Nc2ccccc2)c2ccccc23)CC1 [compound 433] : 25 to 100%
CCCOC(=O)N1C2CCC1CC(N1CCC3(CC1)CN(C(C)=O)c1ccccc13)C2 (stereo not shown) [compound 507] : 25 to 100%
CCOC(=O)N1C2CCC1CC(N1CCC3(CC[C@H](NC(=O)C4CC4)c4ccccc43)CC1)C2 (stereo partly shown) [compound 664] : 25 to 100%

Exam item: What does the data say about its Emax? Entry: CC(=O)N[C@H]1CC2(CCN(C3CCCCCC3)C2)c2ccc(F)cc21 (stereo partly shown) [compound 823]
Marked response: 25 to 100%

Exam item: Look at this compound and give its reported Emax. CCN(CC)C(=O)N[C@H]1CC2(CCN(C3CC4CC[C@@H]3C4)CC2)c2ccccc21 (stereo partly shown) [compound 755]
Marked response: 25 to 100%

Exam item: Emax lookup needed for CCc1nccnc1N1CCC(N2CCC3(CC2)CN(C(=O)N(C)C)c2ccc(F)cc23)CC1 [compound 967] , thanks.
Marked response: 25 to 100%

###

Target: M4 muscarinic receptor (Homo sapiens, UniProt P08173)
Construct: expressed in transfected cells; host or cells: CHO (M4-CHO)
Sequence (P08173 whole entry): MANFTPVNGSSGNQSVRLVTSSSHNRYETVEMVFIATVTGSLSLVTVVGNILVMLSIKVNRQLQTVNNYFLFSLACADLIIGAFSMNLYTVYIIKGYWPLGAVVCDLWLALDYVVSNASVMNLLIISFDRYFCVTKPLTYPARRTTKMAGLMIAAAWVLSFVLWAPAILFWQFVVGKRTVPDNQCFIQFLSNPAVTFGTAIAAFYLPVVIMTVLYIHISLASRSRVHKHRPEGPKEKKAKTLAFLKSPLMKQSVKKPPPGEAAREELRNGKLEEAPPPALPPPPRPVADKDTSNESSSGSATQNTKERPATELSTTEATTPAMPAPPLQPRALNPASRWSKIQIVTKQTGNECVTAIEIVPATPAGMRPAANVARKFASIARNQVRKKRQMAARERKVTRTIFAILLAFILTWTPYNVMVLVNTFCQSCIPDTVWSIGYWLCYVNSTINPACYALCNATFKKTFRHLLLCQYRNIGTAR
Test: Functional mobilization of intracellular calcium (FLIPR) in M4-CHO cells
Type: cell-based
Conditions: Table 4; 100% efficacy is the maximum response obtained with the Carbachol control
recordedMetric: Emax

Cc1ccc(N2CCC(N3CCC4(CC3)CN(C(=O)N(C)C)c3ccc(F)cc34)CC2)nn1 [compound 594] : < 25%
O=C1CC2(CCN(CC3CCCCC3)C2)c2ccc(F)cc21 (centres unmarked) [compound 846] : < 25%
CC(=O)N1CC2(CCN(C[C@@H]3CCN(c4cnccn4)C3)CC2)c2c(C)cccc21 [compound 913] : < 25%

Exam item: Fill blank: measured Emax of the molecule CC(=O)N[C@H]1CCC2(CCN(CC3CC4C=CC3C4)CC2)c2ccccc21 (some centres unmarked) [compound 740] is ____.
Marked response: 25 to 100%

Exam item: Given the entry O=C(N[C@H]1CCC2(CCN(CC3CC4C=CC3C4)CC2)c2ccccc21)C1CC1 (some centres unmarked) [compound 576] , report its measured Emax.
Marked response: 25 to 100%

Exam item: Item under review: COCCN1CCC(N2CCC3(CC2)CN(C(C)=O)c2ccc(F)cc23)CC1 [compound 474] . Reported Emax?
Marked response: < 25%

Exam item: Which value of Emax has been reported for CC#CCOC(=O)N1CC[C@@H](CN2CCC3(CC2)CN(C(=O)N(C)C)c2ccc(F)cc23)C1 [compound 939] in the records?
Marked response: 25 to 100%

Exam item: Suppose we examine the molecule CC(=O)NC1CCC2(CCN(CCC3CCN(S(C)(=O)=O)CC3)CC2)c2ccccc21 (centres unmarked) [compound 969] ; what Emax value has been reported?
Marked response: < 25%
